# Test system: A549
# testDescription: Antiproliferative activity against human A549 cells assessed as reduction in cell viability incubated for 48 hrs by CCk-8 assay
# Type: functional, cell-based
# particulars: A549, 48 h
pIC50: −log10 of the molar value.
experimentalReadout: pIC50

A. C[C@H]1CCC/C=C/[C@@H]2C[C@H](O)C[C@H]2[C@H](OC(=O)CCC(=O)Oc2ccc(-c3cc(=S)ss3)cc2)/C=C/C(=O)O1
B. C[C@H]1CCC/C=C/[C@@H]2C[C@H](O)C[C@H]2[C@H](OC(=O)CCC(=O)OCCCCCCOc2ccc(-c3cc(=S)ss3)cc2)/C=C/C(=O)O1
# input Kindly compare A with B and tell me which has the lower pIC50 figure. Answer with the label corresponding to your selection.
# output A
